- TARGET SYSTEM: Platelet-derived growth factor receptor beta (Homo sapiens, UniProt P09619); also: in the data inactive means no Kd found up to 30 µM
- Sequence (P09619 whole entry): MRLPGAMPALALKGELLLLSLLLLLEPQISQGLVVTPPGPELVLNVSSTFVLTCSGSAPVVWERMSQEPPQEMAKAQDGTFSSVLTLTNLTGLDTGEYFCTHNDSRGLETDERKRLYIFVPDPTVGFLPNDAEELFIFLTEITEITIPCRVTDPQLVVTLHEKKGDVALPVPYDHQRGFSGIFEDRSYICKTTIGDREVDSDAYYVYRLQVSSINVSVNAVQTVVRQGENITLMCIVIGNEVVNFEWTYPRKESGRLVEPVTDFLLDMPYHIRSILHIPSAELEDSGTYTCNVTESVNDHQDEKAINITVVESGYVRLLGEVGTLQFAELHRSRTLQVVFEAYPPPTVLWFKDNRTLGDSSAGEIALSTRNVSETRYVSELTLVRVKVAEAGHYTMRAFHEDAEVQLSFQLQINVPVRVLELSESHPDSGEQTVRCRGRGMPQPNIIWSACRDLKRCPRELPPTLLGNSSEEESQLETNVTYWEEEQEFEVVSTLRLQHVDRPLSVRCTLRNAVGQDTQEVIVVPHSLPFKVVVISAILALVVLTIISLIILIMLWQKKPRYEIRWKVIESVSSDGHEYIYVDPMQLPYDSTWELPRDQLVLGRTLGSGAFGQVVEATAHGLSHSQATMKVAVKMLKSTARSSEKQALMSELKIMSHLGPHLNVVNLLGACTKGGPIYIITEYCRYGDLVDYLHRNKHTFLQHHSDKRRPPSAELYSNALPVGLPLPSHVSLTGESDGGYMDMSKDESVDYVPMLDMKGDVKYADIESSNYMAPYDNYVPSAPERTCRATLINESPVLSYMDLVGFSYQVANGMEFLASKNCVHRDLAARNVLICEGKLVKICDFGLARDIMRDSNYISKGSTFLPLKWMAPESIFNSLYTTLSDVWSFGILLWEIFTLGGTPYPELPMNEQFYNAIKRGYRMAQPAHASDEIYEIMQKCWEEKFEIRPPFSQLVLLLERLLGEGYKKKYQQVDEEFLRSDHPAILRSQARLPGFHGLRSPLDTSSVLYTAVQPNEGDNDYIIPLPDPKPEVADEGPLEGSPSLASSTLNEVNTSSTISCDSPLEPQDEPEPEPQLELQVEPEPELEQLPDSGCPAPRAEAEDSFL
Active and inactive are the calls of the source.
Tick one outcome: active, inactive

Please review the entries below; each comes with its answer.
Cc1c(F)cc(C(=O)NC2CC2)cc1-c1ccc(C(=O)NCC(C)(C)C)cn1 [LOSMAPIMOD] = inactive
CNC(=O)c1ccc(-c2cnc3ncc(Cc4ccc5ncccc5c4)n3n2)cc1F [CAPMATINIB] = inactive

Exercise: Hi, sorry to bother you, what did the test record for COC(=O)[C@@]1(O)C[C@H]2O[C@]1(C)n1c3ccccc3c3c4c(c5c6ccccc6n2c5c31)C(=O)NC4 [K-252A] ?
Key: active

Exercise: Hi, sorry to bother you, what did the test record for COc1cc(OC)c(/C=C/S(=O)(=O)Cc2ccc(OC)c(NCC(=O)O)c2)c(OC)c1 [RIGOSERTIB] ?
Key: inactive

Exercise: Hi, sorry to bother you, what did the test record for O=C(O)[C@]1(Cc2cccc(Nc3nccs3)n2)CC[C@@H](Oc2cccc(Cl)c2F)CC1 [MK-5108] ?
Key: inactive

Exercise: Hi, sorry to bother you, what did the test record for C1=C/COCc2cc(ccc2OCCN2CCCC2)Nc2nccc(n2)-c2cccc(c2)COC/1 [PACRITINIB] ?
Key: active

Exercise: Hi, sorry to bother you, what did the test record for Cn1cc(-c2ccc(F)c(C(F)(F)F)c2)nc1C1CCN(c2ncnc3[nH]ncc23)CC1 [LY-2584702] ?
Key: inactive

Exercise: Hi, sorry to bother you, what did the test record for O=C1NC(=O)/C(=C/c2ccc3nccc(-c4ccncc4)c3c2)S1 [GSK-1059615] ?
Key: inactive

----------
- TARGET SYSTEM: Ephrin type-A receptor 4 (Homo sapiens); also: in the data inactive means no Kd found up to 30 µM
- Sequence (P54764 whole entry): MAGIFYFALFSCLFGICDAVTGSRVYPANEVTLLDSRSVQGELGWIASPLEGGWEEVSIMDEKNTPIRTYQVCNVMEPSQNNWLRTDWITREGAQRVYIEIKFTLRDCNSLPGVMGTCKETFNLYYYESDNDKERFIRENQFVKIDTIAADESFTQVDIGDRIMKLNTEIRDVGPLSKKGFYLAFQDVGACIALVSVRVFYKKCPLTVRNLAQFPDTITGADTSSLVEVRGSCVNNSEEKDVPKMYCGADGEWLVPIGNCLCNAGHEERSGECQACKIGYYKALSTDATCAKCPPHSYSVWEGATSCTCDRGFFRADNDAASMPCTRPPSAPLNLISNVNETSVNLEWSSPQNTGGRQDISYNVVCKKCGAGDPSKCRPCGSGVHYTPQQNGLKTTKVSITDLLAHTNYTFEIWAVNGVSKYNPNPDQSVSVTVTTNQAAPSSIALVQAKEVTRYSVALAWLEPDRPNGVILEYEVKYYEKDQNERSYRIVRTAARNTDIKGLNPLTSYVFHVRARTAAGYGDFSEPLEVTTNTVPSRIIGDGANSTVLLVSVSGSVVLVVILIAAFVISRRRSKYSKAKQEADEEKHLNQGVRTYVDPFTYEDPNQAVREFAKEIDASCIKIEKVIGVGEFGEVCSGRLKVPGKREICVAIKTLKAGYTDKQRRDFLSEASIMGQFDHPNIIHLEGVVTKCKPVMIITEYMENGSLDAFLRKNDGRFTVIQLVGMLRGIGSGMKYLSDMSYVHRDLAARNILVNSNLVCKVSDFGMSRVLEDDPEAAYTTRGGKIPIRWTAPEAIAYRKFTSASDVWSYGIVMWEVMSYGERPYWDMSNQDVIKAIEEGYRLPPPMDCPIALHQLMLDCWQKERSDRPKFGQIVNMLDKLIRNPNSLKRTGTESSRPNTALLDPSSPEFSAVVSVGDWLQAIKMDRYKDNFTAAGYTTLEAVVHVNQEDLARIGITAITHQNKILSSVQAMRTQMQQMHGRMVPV
Calls of active or inactive are those of the source.
Tick one outcome: active, inactive

Please review the entries below; each comes with its answer.
Cc1ccc(S(=O)(=O)Nc2nc3ccccc3nc2Nc2ccc3nsnc3c2)cc1 = inactive
Cc1cc(Nc2cc(N3CCN(C)CC3)nc(/C=C/c3ccccc3)n2)n[nH]1 [ENMD-2076] = inactive
COc1cc(CCc2cc(NC(=O)c3ccc(N4C[C@@H](C)N[C@@H](C)C4)cc3)n[nH]2)cc(OC)c1 [AZD-4547] = inactive

Exercise: Hi, sorry to bother you, what did the test record for OCCn1cc(-c2cnc3nnn(Cc4ccc5ncccc5c4)c3n2)cn1 [PF-04217903] ?
Key: inactive

Exercise: Hi, sorry to bother you, what did the test record for CNS(=O)(=O)Nc1nccc(Cc2c(C)c3ccc(Oc4ncccn4)cc3oc2=O)c1F [AVUTOMETINIB] ?
Key: inactive

Exercise: Hi, sorry to bother you, what did the test record for CC[C@@H]1C(=O)N(C)c2cnc(Nc3ccc(C(=O)N[C@H]4CC[C@H](N5CCN(CC6CC6)CC5)CC4)cc3OC)nc2N1C(C)C [VOLASERTIB] ?
Key: inactive

Exercise: Hi, sorry to bother you, what did the test record for C[C@@H](c1ccc2nccn2c1)n1nnc2ncc(-c3cnn(C)c3)nc21 [SAVOLITINIB] ?
Key: inactive

Exercise: Hi, sorry to bother you, what did the test record for CCCS(=O)(=O)Nc1ccc(F)c(C(=O)c2c[nH]c3ncc(-c4ccc(Cl)cc4)cc23)c1F [VEMURAFENIB] ?
Key: inactive

----------
Quick record: Kd, Guanine nucleotide-binding protein G(i) subunit alpha-2 (Homo sapiens, UniProt P04899).
Calls of active or inactive are those of the source.

CNC(=O)CN1CCC(Oc2cc3c(Nc4cccc(Cl)c4F)ncnc3cc2OC)CC1 = > 30 µM (inactive)

Exercise: With Guanine nucleotide-binding protein G(i) subunit alpha-2 (Homo sapiens, UniProt P04899) as the test system, provide measured Kd for this compound: COc1cc(N2CCC(N3CCN(C)CC3)CC2)ccc1Nc1ncnc(Nc2ccccc2S(=O)(=O)C(C)C)n1
Sequence (P04899 whole entry): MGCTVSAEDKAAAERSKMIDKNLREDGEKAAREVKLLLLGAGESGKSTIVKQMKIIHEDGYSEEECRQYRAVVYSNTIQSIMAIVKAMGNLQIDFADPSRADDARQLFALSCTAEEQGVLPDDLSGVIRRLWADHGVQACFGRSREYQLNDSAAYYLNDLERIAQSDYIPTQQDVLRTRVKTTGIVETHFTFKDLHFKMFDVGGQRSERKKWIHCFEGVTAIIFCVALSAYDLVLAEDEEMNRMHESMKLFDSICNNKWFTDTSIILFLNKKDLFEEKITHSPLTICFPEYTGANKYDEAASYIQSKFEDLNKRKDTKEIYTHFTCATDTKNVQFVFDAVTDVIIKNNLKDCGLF
Key: > 30 µM (inactive)

Exercise: With Guanine nucleotide-binding protein G(i) subunit alpha-2 (Homo sapiens, UniProt P04899) as the test system, provide measured Kd for this compound: O=C1NC(=O)/C(=C/c2ccc3nccc(-c4ccncc4)c3c2)S1
Key: > 30 µM (inactive)

Exercise: With Guanine nucleotide-binding protein G(i) subunit alpha-2 (Homo sapiens, UniProt P04899) as the test system, provide measured Kd for this compound: CNC(=O)c1cc(Oc2ccc(NC(=O)Nc3ccc(Cl)c(C(F)(F)F)c3)c(F)c2)ccn1
Key: > 30 µM (inactive)

The measured values listed here are drawn from ChEMBL document CHEMBL3991601.
